Entries and their pIC50 values follow.
system: Primary human T-cells; assay: Primary Human T-Cell Proliferation Assay Stimulated with IL-2 (CellTiter-Glo); type: cell-based; conditions: primary human T-cell proliferation stimulated with IL-2; read-out: IC50, Example 42
pIC50: −log10 of the molar value.

>  <smiles_data>
NS(=O)(=O)c1ccc(Nc2ncc(F)c(Nc3cccc(CNC(=O)C4CC4)c3)n2)cc1

>  <pIC50>
5.95

$$$$
>  <smiles_data>
Cc1cc(COc2ccc(Nc3nc(Nc4cc(C)c(F)c(S(N)(=O)=O)c4)ncc3F)cc2)no1

>  <pIC50>
6.66

$$$$
>  <smiles_data>
NS(=O)(=O)c1cccc(Nc2ncc(F)c(Nc3ccc(SCc4cccnc4)cc3)n2)c1

>  <pIC50>
6.81

$$$$
>  <smiles_data>
Cc1nc(COc2ccc(Nc3nc(Nc4ccc(C)c(S(N)(=O)=O)c4)ncc3F)cc2)cs1

>  <pIC50>
6.01

$$$$
